System: MV4-11
Assay: Antiproliferative activity against human MV4-11 cells assessed as reduction in cell growth
Format: functional, cell-based
measurement-name: pIC50
Give bare numbers, as −log10 of the molar value.

What measured pIC50 goes with "CCNC(=O)c1cc2c(-c3cc(C(C)(C)O)ccc3Oc3c(C)cc(F)cc3C)cn(C)c(=O)c2[nH]1" ?
7.40

* * *

Target: Tyrosine-protein kinase JAK1 (Homo sapiens, UniProt P23458)
Sequence (P23458 whole entry): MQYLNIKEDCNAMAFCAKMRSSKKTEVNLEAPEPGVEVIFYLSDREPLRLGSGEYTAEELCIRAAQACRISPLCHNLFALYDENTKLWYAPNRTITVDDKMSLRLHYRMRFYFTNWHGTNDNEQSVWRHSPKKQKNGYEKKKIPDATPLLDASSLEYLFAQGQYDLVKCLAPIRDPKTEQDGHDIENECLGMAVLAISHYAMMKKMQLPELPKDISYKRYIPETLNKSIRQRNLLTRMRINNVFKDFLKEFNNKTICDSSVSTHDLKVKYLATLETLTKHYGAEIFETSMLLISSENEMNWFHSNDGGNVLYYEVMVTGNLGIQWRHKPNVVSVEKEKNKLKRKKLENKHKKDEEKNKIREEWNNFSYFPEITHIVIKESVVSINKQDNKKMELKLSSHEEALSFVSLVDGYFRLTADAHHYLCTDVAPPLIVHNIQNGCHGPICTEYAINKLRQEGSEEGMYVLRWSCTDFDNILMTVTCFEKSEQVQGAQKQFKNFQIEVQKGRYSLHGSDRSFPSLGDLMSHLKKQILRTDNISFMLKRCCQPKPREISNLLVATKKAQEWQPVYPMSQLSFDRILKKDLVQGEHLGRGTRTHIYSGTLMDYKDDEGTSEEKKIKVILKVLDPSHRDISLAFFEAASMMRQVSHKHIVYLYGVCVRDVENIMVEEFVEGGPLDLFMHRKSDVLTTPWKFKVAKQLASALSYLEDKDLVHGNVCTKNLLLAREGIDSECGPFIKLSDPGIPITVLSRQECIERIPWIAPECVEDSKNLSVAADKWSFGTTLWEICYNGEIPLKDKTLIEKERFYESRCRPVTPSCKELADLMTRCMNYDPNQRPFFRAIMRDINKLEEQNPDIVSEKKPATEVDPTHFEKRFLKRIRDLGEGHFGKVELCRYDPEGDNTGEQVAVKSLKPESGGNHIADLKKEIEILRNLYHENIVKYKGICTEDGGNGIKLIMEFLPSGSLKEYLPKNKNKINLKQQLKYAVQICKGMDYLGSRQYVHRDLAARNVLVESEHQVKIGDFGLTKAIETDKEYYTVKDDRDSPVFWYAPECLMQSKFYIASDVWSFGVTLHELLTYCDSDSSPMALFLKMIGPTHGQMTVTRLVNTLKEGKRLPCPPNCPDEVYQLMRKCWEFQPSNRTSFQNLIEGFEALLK
measurement-name: pIC50
Numbers only, as −log10 of the molar value.

What measured pIC50 goes with "CCn1c(C)nc2c(F)cc(-c3nc(Nc4ccc(CNC(=O)CCCCCCC(=O)NO)cc4)ncc3F)cc21" ?
7.66
